- target-entity: T1, human FOLR1 expressed on SKOV-3 ovarian carcinoma cells (human, UniProt P15328 25-234)
- T1 construct: Naturally expressed receptor on SKOV-3 cells; also called human FOLR1pos SKOV-3 cancer cells; human FOLR1-expressing cell line SKOV-3
- T1 sequence (P15328 25-234 limits assumed): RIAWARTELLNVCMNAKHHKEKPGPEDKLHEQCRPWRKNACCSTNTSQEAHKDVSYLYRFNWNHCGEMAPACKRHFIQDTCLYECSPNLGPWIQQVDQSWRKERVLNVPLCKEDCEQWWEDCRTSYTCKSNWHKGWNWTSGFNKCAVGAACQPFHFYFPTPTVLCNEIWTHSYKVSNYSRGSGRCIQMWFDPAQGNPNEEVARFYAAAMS
- test-description: saturation binding of 131I-labelled untagged VHH on SKOV-3 cells
The entries below are paired with their reported pEC50.
In textbook form, pEC50 equals minus log to base ten of the concentration in mol/L.

INSERT INTO measurements (binder, test_result) VALUES
  ('131I-labeled untagged A1-N64Q (VHH, [131I]SGMIB conjugated to lysine side-chain amine groups) VHH: DVQLVESGGGLVQPGGSLRLSCAASESIFSRNHMSWYRQAPGKQRELAAIITSDGQTNYPDSVKGRFTISRDNAKNTVYLQMNSLKPEDTAVYYCNTFGRSVAGFYDYWGQGTQVTVSS', 8.64);

For reference, reported pEC50 for 131I-labeled untagged A1-N64S (VHH, [131I]SGMIB conjugated to lysine side-chain amine groups) VHH: DVQLVESGGGLVQPGGSLRLSCAASESIFSRNHMSWYRQAPGKQRELAAIITSDGSTNYPDSVKGRFTISRDNAKNTVYLQMNSLKPEDTAVYYCNTFGRSVAGFYDYWGQGTQVTVSS stands at 9.05

So for 131I-labeled untagged VHH A1 (VHH, [131I]SGMIB conjugated to lysine side-chain amine groups) VHH: DVQLVESGGGLVQPGGSLRLSCAASESIFSRNHMSWYRQAPGKQRELAAIITSDGNTNYPDSVKGRFTISRDNAKNTVYLQMNSLKPEDTAVYYCNTFGRSVAGFYDYWGQGTQVTVSS , the logged pEC50 turned out to be 8.96

Measured values drawn from patent US20230340111A1 for this set.
